Tested system: NAD-dependent protein deacylase sirtuin-5, mitochondrial (Homo sapiens, UniProt Q9NXA8)
Sequence (Q9NXA8 whole entry): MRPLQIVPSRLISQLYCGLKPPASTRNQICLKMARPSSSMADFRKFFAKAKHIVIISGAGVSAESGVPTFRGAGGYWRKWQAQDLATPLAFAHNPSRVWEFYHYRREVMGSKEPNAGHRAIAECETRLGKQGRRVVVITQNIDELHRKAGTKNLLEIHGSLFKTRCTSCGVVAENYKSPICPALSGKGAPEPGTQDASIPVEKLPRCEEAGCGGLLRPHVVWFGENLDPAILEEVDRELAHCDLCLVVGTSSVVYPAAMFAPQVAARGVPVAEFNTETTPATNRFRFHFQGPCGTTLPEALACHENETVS
Test: Inhibition of human SIRT5 by fluorescence based analysis
Observable: IC50 (nM)
Give a bare numeral; the unit nM is implied.

{"Smiles code": "CC1=NN(c2nc(-c3cccc(F)c3)cs2)C(=O)/C1=C/c1ccc(C(=O)O)cc1", "Tested system": "NAD-dependent protein deacylase sirtuin-5, mitochondrial (Homo sapiens, UniProt Q9NXA8)", "IC50 (nM)": 1860}
{"Smiles code": "COc1ccc(-c2csc(N3N=C(C)/C(=C\\c4ccc(Cl)cc4)C3=O)n2)cc1", "Tested system": "NAD-dependent protein deacylase sirtuin-5, mitochondrial (Homo sapiens, UniProt Q9NXA8)", "IC50 (nM)": 22600}
{"Smiles code": "COc1ccccc1-c1csc(N2N=C(C)/C(=C\\c3ccc(C(=O)O)cc3)C2=O)n1", "Tested system": "NAD-dependent protein deacylase sirtuin-5, mitochondrial (Homo sapiens, UniProt Q9NXA8)", "IC50 (nM)": 5540}
{"Smiles code": "CC1=NN(c2nc(-c3ccc(Br)cc3)cs2)C(=O)/C1=C/c1ccc(Cl)cc1", "Tested system": "NAD-dependent protein deacylase sirtuin-5, mitochondrial (Homo sapiens, UniProt Q9NXA8)", "IC50 (nM)": 12500}
{"Smiles code": "CC1=NN(c2nc(-c3cccc(C#N)c3)cs2)C(=O)/C1=C/c1ccc(C(=O)O)cc1", "Tested system": "NAD-dependent protein deacylase sirtuin-5, mitochondrial (Homo sapiens, UniProt Q9NXA8)", "IC50 (nM)": 4160}
{"Smiles code": "CC1=NN(c2nc(-c3ccc(Br)cc3)cs2)C(=O)/C1=C/c1ccc(C(=O)O)cc1", "Tested system": "NAD-dependent protein deacylase sirtuin-5, mitochondrial (Homo sapiens, UniProt Q9NXA8)", "IC50 (nM)": 1720}
{"Smiles code": "CC1=NN(c2nc(-c3ccc(F)cc3)cs2)C(=O)/C1=C/c1ccc(C(=O)O)cc1", "Tested system": "NAD-dependent protein deacylase sirtuin-5, mitochondrial (Homo sapiens, UniProt Q9NXA8)", "IC50 (nM)": 850}
{"Smiles code": "COC(=O)c1ccc(/C=C2/C(=O)N(c3nc(-c4cccc(C)c4)cs3)N=C2C)cc1", "Tested system": "NAD-dependent protein deacylase sirtuin-5, mitochondrial (Homo sapiens, UniProt Q9NXA8)", "IC50 (nM)": 20500}
{"Smiles code": "CC1=NN(c2nc(-c3ccc(O)cc3)cs2)C(=O)/C1=C/c1ccc(C(=O)O)cc1", "Tested system": "NAD-dependent protein deacylase sirtuin-5, mitochondrial (Homo sapiens, UniProt Q9NXA8)", "IC50 (nM)": 1920}
{"Smiles code": "COc1ccc(-c2csc(N3N=C(C)/C(=C\\c4ccc(C(=O)O)cc4)C3=O)n2)cc1", "Tested system": "NAD-dependent protein deacylase sirtuin-5, mitochondrial (Homo sapiens, UniProt Q9NXA8)", "IC50 (nM)": 1820}

Data request: Give the measured IC50 for COC(=O)c1ccc(/C=C2/C(=O)N(c3nc(-c4ccc(Cl)cc4)cs3)N=C2C)cc1
Data returned: 2560

Data request: Give the value of IC50 reported for the following: CC1=NN(c2nc(-c3ccc(Cl)cc3)cs2)C(=O)/C1=C/c1ccc(Cl)cc1
Data returned: 7560

Data request: Kindly indicate its recorded IC50. Item: COC(=O)c1ccc(/C=C2/C(=O)N(c3nc(-c4ccc(C(F)(F)F)cc4)cs3)N=C2C)cc1
Data returned: 2840
